// provenance: paper PMC5681660

Target: human NTCP (Homo sapiens)
Protocol Text: Screening taurocholate uptake assay (96-well, [14C]taurocholate, 10 µM drug)
Test Settings: ranking score beside the functional and binding assay B-scores of the screen
Counter-ions that a name gives are not always drawn.
Attribute Measured: Ranking score

[[record]]
compound = "CC(C)(C)NC(=O)[C@@H]1CN(Cc2cccnc2)CCN1C[C@@H](O)C[C@@H](Cc1ccccc1)C(=O)N[C@H]1c2ccccc2C[C@H]1O [Indinavir sulfate]"
attribute_measured = "Ranking score"
reported = 710.601

[[record]]
compound = "CO[C@H]1/C=C/O[C@@]2(C)Oc3c(C)c(O)c4c(c3C2=O)C2=NC3(CCN(CC(C)C)CC3)NC2=C(NC(=O)/C(C)=C\\C=C\\[C@H](C)[C@H](O)[C@@H](C)[C@@H](O)[C@@H](C)[C@H](OC(C)=O)[C@@H]1C)C4=O"
attribute_measured = "Ranking score"
reported = 731.029

[[record]]
compound = "CCCc1nn(C)c2c(=O)[nH]c(-c3cc(S(=O)(=O)N4CCN(C)CC4)ccc3OCC)nc12"
attribute_measured = "Ranking score"
reported = 755.751

[[record]]
compound = "O=C(Nc1ccccc1)OCC(CN1CCCCC1)OC(=O)Nc1ccccc1 (stereo not shown) [Diperodon hydrochloride]"
attribute_measured = "Ranking score"
reported = 772.884

[[record]]
compound = "COc1ccc(C[C@@H]2c3cc(OC)c(OC)cc3CC[N@+]2(C)CCC(=O)OCCCCCOC(=O)CC[N@@+]2(C)CCc3cc(OC)c(OC)cc3[C@H]2Cc2ccc(OC)c(OC)c2)cc1OC [Cisatracurium besylate]"
attribute_measured = "Ranking score"
reported = 764.984

[[record]]
compound = "CO[C@H]1C[C@H](O[C@H]2[C@H](C)[C@@H](O[C@@H]3O[C@H](C)C[C@H](N(C)C)[C@H]3OC(C)=O)[C@@H](C)C[C@@]3(CO3)C(=O)[C@H](C)[C@@H](OC(C)=O)[C@@H](C)[C@@H](C)OC(=O)[C@@H]2C)O[C@@H](C)[C@@H]1OC(C)=O"
attribute_measured = "Ranking score"
reported = 732.508

[[record]]
compound = "C1CCc2nnnn2CC1"
attribute_measured = "Ranking score"
reported = 696.951


----------
Target: human NTCP (Homo sapiens, UniProt Q14973)
Sequence (Q14973 whole entry): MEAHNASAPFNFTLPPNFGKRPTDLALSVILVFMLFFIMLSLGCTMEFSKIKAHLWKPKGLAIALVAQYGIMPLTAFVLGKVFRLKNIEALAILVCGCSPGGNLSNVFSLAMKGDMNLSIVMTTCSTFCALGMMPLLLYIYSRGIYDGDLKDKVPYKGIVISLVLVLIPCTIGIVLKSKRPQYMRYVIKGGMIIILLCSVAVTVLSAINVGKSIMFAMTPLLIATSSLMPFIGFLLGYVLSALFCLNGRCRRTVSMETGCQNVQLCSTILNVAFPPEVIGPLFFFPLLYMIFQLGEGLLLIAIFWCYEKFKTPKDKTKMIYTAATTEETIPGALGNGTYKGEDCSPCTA
Protocol Text: Screening fluorescent competitive Myrcludex B-FITC binding assay (96-well, 10 µM drug)
Structures can show the parent of a compound that is named as a salt.
Attribute Measured: B-score binding assay

[[record]]
compound = "CCCC(C)C1(CC)C(=O)NC(=O)NC1=O (stereo not drawn) [Pentobarbital]"
target = "human NTCP (Homo sapiens, UniProt Q14973)"
reported = 1.244

[[record]]
compound = "COc1ccc2[nH]c([S+]([O-])Cc3ncc(C)c(OC)c3C)nc2n1 (stereo not drawn) [Tenatoprazole]"
target = "human NTCP (Homo sapiens, UniProt Q14973)"
reported = -1.326

[[record]]
compound = "COc1cccc2c1C(=O)c1c(O)c3c(c(O)c1C2=O)C[C@@](O)(C(=O)CO)C[C@@H]3O[C@H]1C[C@H](N)[C@@H](O)[C@H](C)O1 [Epirubicin hydrochloride]"
target = "human NTCP (Homo sapiens, UniProt Q14973)"
reported = 1.555

[[record]]
compound = "CCOc1ccccc1OCC1CNCCO1 (stereo not drawn) [Viloxazine hydrochloride]"
target = "human NTCP (Homo sapiens, UniProt Q14973)"
reported = -0.914

[[record]]
compound = "O=C(NCC(O)CO)c1c(I)c(C(=O)NCC(O)CO)c(I)c(N(CCO)C(=O)CO)c1I (stereo not drawn) [Ioversol]"
target = "human NTCP (Homo sapiens, UniProt Q14973)"
reported = 0.541

[[record]]
compound = "Oc1c(Cl)cc(Cl)c(Cl)c1Cc1c(O)c(Cl)cc(Cl)c1Cl [Hexachlorophene]"
target = "human NTCP (Homo sapiens, UniProt Q14973)"
reported = 1.48

[[record]]
compound = "CNCCC(Oc1ccccc1OC)c1ccccc1 (stereo not drawn) [Nisoxetine hydrochloride]"
target = "human NTCP (Homo sapiens, UniProt Q14973)"
reported = -0.726

[[record]]
compound = "COc1cccc2c1C(=O)c1c(O)c3c(c(O)c1C2=O)C[C@@](O)(C(=O)CO)C[C@@H]3O[C@H]1C[C@H](N)[C@H](O)[C@H](C)O1 [Doxorubicin hydrochloride]"
target = "human NTCP (Homo sapiens, UniProt Q14973)"
reported = -0.177

[[record]]
compound = "Cc1c(Cl)cccc1Nc1ncccc1C(=O)O.NCCCC[C@H](N)C(=O)O [Clonixin Lysinate]"
target = "human NTCP (Homo sapiens, UniProt Q14973)"
reported = 0

[[record]]
compound = "COc1ccc2cc([C@@H](C)C(=O)[O-])ccc2c1.[Na+] [(R) -Naproxen sodium salt]"
target = "human NTCP (Homo sapiens, UniProt Q14973)"
reported = 0.921

[[record]]
compound = "CC(N)C(O)c1ccccc1 (stereo not drawn) [Phenylpropanolamine hydrochloride]"
target = "human NTCP (Homo sapiens, UniProt Q14973)"
reported = -0.994

[[record]]
compound = "CCCC1C(=O)N2C(N(C)C)=Nc3ccc(C)cc3N2C1=O (stereo not drawn) [Azapropazone]"
target = "human NTCP (Homo sapiens, UniProt Q14973)"
reported = -1.852

[[record]]
compound = "COc1ccnc(C[S+]([O-])c2nc3ccc(OC(F)F)cc3[nH]2)c1OC (stereo not drawn) [Pantoprazole sodium]"
target = "human NTCP (Homo sapiens, UniProt Q14973)"
reported = 0.377

[[record]]
compound = "C[C@]12CC[C@H](O)C[C@@H]1CC[C@@H]1[C@@H]2CC[C@]2(C)C(=O)CC[C@@H]12 [Epiandrosterone]"
target = "human NTCP (Homo sapiens, UniProt Q14973)"
reported = 2.961

[[record]]
compound = "C/C(=C(/CCO)SSCC1CCCO1)N(C=O)Cc1cnc(C)nc1N.Cl (stereo not drawn) [Fursultiamine Hydrochloride]"
target = "human NTCP (Homo sapiens, UniProt Q14973)"
reported = 0.087

[[record]]
compound = "CC(C)NC[C@@H](O)COc1cccc2ccccc12.Cl [(R)-Propranolol hydrochloride]"
target = "human NTCP (Homo sapiens, UniProt Q14973)"
reported = 0.252

[[record]]
compound = "C=CCN1CC[C@]23c4c5ccc(O)c4O[C@H]2C(=O)CC[C@@]3(O)[C@H]1C5 [Naloxone hydrochloride]"
target = "human NTCP (Homo sapiens, UniProt Q14973)"
reported = 0

[[record]]
compound = "CC(C)Cn1cnc2c(N)nc3ccccc3c21 [Imiquimod]"
target = "human NTCP (Homo sapiens, UniProt Q14973)"
reported = -0.174

